For each of the binders below, state its pKd.
- experimental target: T1, Recombinant Human CD14/His Protein (B294801) (human, UniProt P08571 20-352, limits assumed)
- T1 construct: Bought His-tagged recombinant human CD14; also called recombinant human CD14 antigen; CD14 antigen; not shown: histidine tag
- T1 sequence (looked up): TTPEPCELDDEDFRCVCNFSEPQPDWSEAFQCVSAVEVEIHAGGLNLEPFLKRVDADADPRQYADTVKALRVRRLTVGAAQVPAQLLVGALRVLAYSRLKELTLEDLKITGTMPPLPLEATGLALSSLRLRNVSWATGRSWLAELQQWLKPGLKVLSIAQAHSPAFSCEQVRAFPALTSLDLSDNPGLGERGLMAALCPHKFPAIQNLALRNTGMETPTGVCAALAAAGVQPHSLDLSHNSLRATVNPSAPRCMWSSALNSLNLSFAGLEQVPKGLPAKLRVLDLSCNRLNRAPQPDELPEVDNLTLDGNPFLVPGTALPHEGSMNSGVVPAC
- assay method text: SPR (Biacore 8K), antibody captured (1 ug/mL) on Protein A chip, CD14-His analyte 0.1953125-25 nM, 1:1 binding
Keep it numeric: pKd is minus log10 of the concentration in mol/L.

Problem: Consider the binder Antibody No. MPDDAD005 (HU1127-hVH3/hVL3-5) (antibody, V domains shown, D6DD3D014 with the light chain PTM site NS (VL amino acids 34, 35) changed to QS; Tested as a recombinant antibody with hFc tag, 144 kDa) VH: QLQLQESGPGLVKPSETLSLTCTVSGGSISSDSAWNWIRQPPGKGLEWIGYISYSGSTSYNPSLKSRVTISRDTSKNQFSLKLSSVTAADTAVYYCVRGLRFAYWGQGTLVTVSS VL: DIQLTQSPSSLSASVGDRVTITCRASESVDSYVQSFLHWYQQKPGKAPKLLIYRASNLQSGVPSRFSGSGSRTDFTLTISSLQPEDVATYYCQQSNEDPYTFGQGTKLEIK and give its recorded pKd.
Result: 8.31

Problem: Consider the binder Antibody No. D6DD3D001 (HU1127-mVH/mVL) (antibody, human IgG1, kappa, V domains shown, Mouse variable domains of Atibuclimab on human IgG1 constant regions (hFc, 146 kDa); also called Original IgG1 antibody; mouse antibody) VH: DVQLQQSGPGLVKPSQSLSLTCTVTGYSITSDSAWNWIRQFPGNRLEWMGYISYSGSTSYNPSLKSRISITRDTSKNQFFLQLNSVTTEDTATYYCVRGLRFAYWGQGTLVTVSS VL: DIVLTQSPASLAVSLGQRATISCRASESVDSYVNSFLHWYQQKPGQPPKLLIYRASNLQSGIPARFSGSGSRTDFTLTINPVEADDVATYYCQQSNEDPYTFGGGTKLEIKR and give its recorded pKd.
Result: 9.06

Problem: Consider the binder Antibody No. MPDDAD002 (HU1127-hVH3/hVL3-2) (antibody, V domains shown, D6DD3D014 with the light chain PTM site NS (VL amino acids 34, 35) changed to SS; Tested as a recombinant antibody with hFc tag, 144 kDa) VH: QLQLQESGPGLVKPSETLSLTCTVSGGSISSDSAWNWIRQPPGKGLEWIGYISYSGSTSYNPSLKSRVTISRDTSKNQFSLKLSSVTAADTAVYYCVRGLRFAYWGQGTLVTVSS VL: DIQLTQSPSSLSASVGDRVTITCRASESVDSYVSSFLHWYQQKPGKAPKLLIYRASNLQSGVPSRFSGSGSRTDFTLTISSLQPEDVATYYCQQSNEDPYTFGQGTKLEIK and give its recorded pKd.
Result: 8.55

Problem: Consider the binder Antibody No. MPDDAD003 (HU1127-hVH3/hVL3-3) (antibody, V domains shown, D6DD3D014 with the light chain PTM site NS (VL amino acids 34, 35) changed to TS; Tested as a recombinant antibody with hFc tag, 144 kDa) VH: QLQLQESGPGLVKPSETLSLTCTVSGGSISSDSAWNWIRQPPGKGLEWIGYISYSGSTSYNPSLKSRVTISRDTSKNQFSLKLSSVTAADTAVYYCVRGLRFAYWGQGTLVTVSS VL: DIQLTQSPSSLSASVGDRVTITCRASESVDSYVTSFLHWYQQKPGKAPKLLIYRASNLQSGVPSRFSGSGSRTDFTLTISSLQPEDVATYYCQQSNEDPYTFGQGTKLEIK and give its recorded pKd.
Result: 8.69

Problem: Consider the binder Antibody No. MPDDAD004 (HU1127-hVH3/hVL3-4) (antibody, V domains shown, D6DD3D014 with the light chain PTM site NS (VL amino acids 34, 35) changed to NA; Tested as a recombinant antibody with hFc tag, 144 kDa) VH: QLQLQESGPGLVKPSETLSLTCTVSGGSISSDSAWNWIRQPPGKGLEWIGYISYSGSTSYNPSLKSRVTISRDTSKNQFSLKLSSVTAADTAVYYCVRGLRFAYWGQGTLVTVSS VL: DIQLTQSPSSLSASVGDRVTITCRASESVDSYVNAFLHWYQQKPGKAPKLLIYRASNLQSGVPSRFSGSGSRTDFTLTISSLQPEDVATYYCQQSNEDPYTFGQGTKLEIK and give its recorded pKd.
Result: 8.23

Problem: Consider the binder Antibody No. MPDDAD001 (HU1127-hVH3/hVL3-1) (antibody, IgG1, V domains shown, D6DD3D014 with the light chain PTM site NS (VL amino acids 34, 35) changed to DS; Tested as a recombinant antibody with hFc tag, 144 kDa) VH: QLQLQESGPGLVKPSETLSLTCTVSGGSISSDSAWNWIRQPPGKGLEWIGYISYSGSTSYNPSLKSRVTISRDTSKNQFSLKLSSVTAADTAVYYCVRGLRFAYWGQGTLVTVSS VL: DIQLTQSPSSLSASVGDRVTITCRASESVDSYVDSFLHWYQQKPGKAPKLLIYRASNLQSGVPSRFSGSGSRTDFTLTISSLQPEDVATYYCQQSNEDPYTFGQGTKLEIK and give its recorded pKd.
Result: 8.13
